experiment: qHTS of pediatric cancer cell lines to identify multiple opportunities for drug repurposing: Primary screen for RD cells (AID 1347104); conditions: RD rhabdomyosarcoma viability, CellTiter-Glo luminescence, 48 h; series mostly up to 46 µM; also: nearly all actives have a fitted effect of over 55% in size
Inconclusive results are not listed. The source made the active and inactive calls. Calls follow the shape of the dose curve; as a rule, active = well fitted cell-killing curve with a large enough effect; inconclusive = small, poorly fitted or top-dose-only effect; inactive = flat fitted curve, though single readings scatter.
Pick one and only one: active, inactive

CNC(=O)c1ccc(-c2cnc3ncc(Cc4ccc5ncccc5c4)n3n2)cc1F: inactive
Cc1ccc(C(=O)Nc2ccc(CN3CCN(C)CC3)c(C(F)(F)F)c2)cc1C#Cc1cnc2cccnn12: active
COc1cc2c(cc1-c1c(C)noc1C)ncc1[nH]c(=O)n([C@H](C)c3ccccn3)c12: active
COc1cc(C(C)C)c2c(c1)S(=O)(=O)N(COc1cc(=O)n3cccc(OCCN4CCCCC4)c3n1)C2=O: active

[in] Write down the call the test reported for this compound. Item: N#Cc1c(O)c2c(-c3ccc(-c4ccccc4O)cc3)csc2[nH]c1=O
[out] inactive

[in] GET /call?item= CCOc1ccccc1OCCNC(C)Cc1ccc(OC)c(S(N)(=O)=O)c1 (stereo not given) returns the recorded outcome of this test.
[out] inactive

[in] Kindly provide the recorded test outcome for the following compound: Clc1cccc(-c2nnnn2Cc2cccnc2)c1Cl
[out] inactive

[in] Kindly provide the recorded test outcome for the following compound: COc1cc2nccc(Oc3ccc(NC(=O)C4(C(=O)Nc5ccc(F)cc5)CC4)cc3)c2cc1OC
[out] active

[in] Write down the call the test reported for this compound. Item: CNC(=O)c1nn(C)c2c1C(C)(C)Cc1cnc(Nc3ccc(N4CCN(C)CC4)cc3)nc1-2
[out] active
